Molecular target: human CRTH2 (Homo sapiens, UniProt Q9Y5Y4)
Construct: expressed in transfected cells; host or cells: L1.2 cells, pEAK expression vector, puromycin-selected
Sequence (Q9Y5Y4 1-395): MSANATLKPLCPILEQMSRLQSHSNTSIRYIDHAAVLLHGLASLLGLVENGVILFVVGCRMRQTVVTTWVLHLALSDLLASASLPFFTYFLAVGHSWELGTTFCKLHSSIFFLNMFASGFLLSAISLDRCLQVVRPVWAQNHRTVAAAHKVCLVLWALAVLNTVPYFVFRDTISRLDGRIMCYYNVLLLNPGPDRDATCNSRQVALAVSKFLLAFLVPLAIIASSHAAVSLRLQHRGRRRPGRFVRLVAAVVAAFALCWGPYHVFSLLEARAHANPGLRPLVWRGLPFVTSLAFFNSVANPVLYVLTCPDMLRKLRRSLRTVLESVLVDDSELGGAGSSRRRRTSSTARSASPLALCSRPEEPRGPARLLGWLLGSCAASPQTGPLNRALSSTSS
Assay: Measurement of Ca2+ mobilization in the human CRTH2-transfected L1.2 cell line (Assay 1)
Type: cell-based
Conditions: PGD2-induced Ca2+ mobilization in CRTH2-transfected L1.2 cells; compounds as yielded by solid phase synthesis, purity about 40 to 90%; read-out: Activity class
REPORTED PROPERTY: IC50

COMPOUND	EXPERIMENTAL SYSTEM	IC50
O=C(O)Cc1c(Cl)nc(Cc2ccc(NC(=O)c3ccc(Oc4ccccc4)cc3)cc2)nc1N1CCCC1	human CRTH2 (Homo sapiens, UniProt Q9Y5Y4)	< 10 nM
CN(Cc1ccccc1)C(=O)Nc1ccc(Cc2ncc(CC(=O)O)c(N(C)C)n2)cc1	human CRTH2 (Homo sapiens, UniProt Q9Y5Y4)	100 to 500 nM
CN(CC(=O)NC1CCCCC1)c1nc(Cc2ccc(NC(=O)c3ccc4ccccc4c3)cc2)nc(Cl)c1CC(=O)O	human CRTH2 (Homo sapiens, UniProt Q9Y5Y4)	< 10 nM

Problem: Give the reported IC50 for this compound. "CN(C)c1nc(Cc2ccc(NC(=O)c3ccc(Cl)cc3)cc2)nc(N2CCCC2)c1CC(=O)O"
Solution: 10 to 100 nM

Problem: Report IC50, nothing else, for this compound: "COCc1nc(Cc2ccc(NC(=O)c3ccc(C(F)(F)F)cc3)cc2)nc(N(C)C)c1CC(=O)O"
Solution: < 10 nM

----------
melting point values, listed per item
Give just the numeric value; °C need not be written.

Solved cases (6 shown):
SMILES ENTRY	melting point / °C
O=C(O)Cc1c(Cl)nc(Cc2ccc(NC(=O)c3ccc(Cl)cc3)cc2)nc1N1CCCC1	173
CN(CC(=O)NC1CCCC1)c1nc(Cc2ccc(NS(=O)(=O)c3ccc4ccccc4c3)cc2)nc(Cl)c1CC(=O)O	116
O=C(O)Cc1c(Cl)nc(Cc2ccc(NC(=O)c3ccc(-n4cccc4)cc3)cc2)nc1N1CCCC1	217
CN(CC(=O)NC1CCCC1)c1nc(Cc2ccc(NC(=O)c3ccc(C#N)cc3)cc2)nc(Cl)c1CC(=O)O	101
CN(CC(=O)NC1CCCC1)c1nc(Cc2ccc(NC(=O)c3cc4ccccc4[nH]3)cc2)nc(Cl)c1CC(=O)O	146
CN(C)c1nc(Cc2ccc(NC(=O)/C=C/c3ccc(Cl)cc3)cc2)nc(N(C)C)c1CC(=O)O	162

Next up:
Problem: Provide only the value of recorded melting point for "CN(C)c1nc(Cc2ccc(NC(=O)c3ccc(Cl)c(Cl)c3)cc2)ncc1CC(=O)O"
Solution: 140
